# Assay: Cellular uptake studies / cellular PK model
# Assay type: in vitro ADME, human
# Condition Info: human, POR-overexpressing HCT-116 (POR-R) cell monolayer; Table S3, cellular PK model (extracellular instability); read-out: T1/2: time required to reduce the concentration to half its initial value (converted)
# Protocol: The intracellular/extracellular partitioning ratio for CP-506 and its major metabolites was determined in monolayer cultures of POR-overexpressing HCT-116 cells, as described previously ([Hong et al., 2018b]). Briefly, cells (5 x 10^5 per well) were seeded with 350 µl medium into 24-well plates and left to attach for 2 h in a humidified 37°C incubator. Stock solutions of CP-506 were diluted and added with 50 µl medium to the well volume to achieve a final concentration of 100 µM. […]
Quantity: half-life at 100 µM
Please answer using the number first and the unit second.

> print(dat)
                                   molecule  observed.measurement
1  CCN1CCN(C(=O)c2cc(N(CCBr)CCOS(C)(=O)=O)c(S(C)(=O)=O)cc2NO)CC1 [CP-506H]              12.6 min

Query string: Fill blank: measured half-life at 100 µM of the molecule CCN1CCN(C(=O)c2cc(N(CCBr)CCOS(C)(=O)=O)c(S(C)(=O)=O)cc2N)CC1 [CP-506M] is ____.
Result string: 6.6 min

Query string: Fill blank: measured half-life at 100 µM of the molecule CCN1CCN(C(=O)c2cc(N(CCBr)CCOS(C)(=O)=O)c(S(C)(=O)=O)cc2[N+](=O)[O-])CC1 is ____.
Result string: 1200 min
